Data provenance: the NIST ThermoML archive (doi:10.1021/je101232g)

Listing of entries alongside the reported mass density.
conditions: 323.15 K; 3000 kPa; Liquid
reported metric: mass density (kg/m3)

CCCCCCCCCCCCCC[P+](CCCCCC)(CCCCCC)CCCCCC.CS(=O)(=O)[O-] [trihexyltetradecylphosphonium methanesulfonate] | 915.3
CCCCCCCCCCCCCC[P+](CCCCCC)(CCCCCC)CCCCCC.N#C[N-]C#N [tetradecyl(trihexyl)phosphonium dicyanamide] | 885.9
CCCCCCCCCCCCCC[P+](CCCCCC)(CCCCCC)CCCCCC.[Br-] [tetradecyltrihexylphosphonium bromide] | 939.7
CCCCCCCCCCCCCC[P+](CCCCCC)(CCCCCC)CCCCCC.[Cl-] [trihexyl(tetradecyl)phosphonium chloride] | 876.4
CCCCCCCCCCCCCC[P+](CCCCCC)(CCCCCC)CCCCCC.O=S(=O)([N-]S(=O)(=O)C(F)(F)F)C(F)(F)F | 1050.1

----------
conditions: 283.15 K; 30000 kPa; Liquid
Numbers after ± are expanded uncertainties.
Listing of entries alongside the reported mass density.
reported metric: mass density

CCCCCCCCCCCCCC[P+](CCCCCC)(CCCCCC)CCCCCC.[Cl-] [trihexyl(tetradecyl)phosphonium chloride] | 911.7 ± 1.5 kg/m3
CCCCCCCCCCCCCC[P+](CCCCCC)(CCCCCC)CCCCCC.O=S(=O)([N-]S(=O)(=O)C(F)(F)F)C(F)(F)F | 1093.3 ± 1.7 kg/m3
CCCCCCCCCCCCCC[P+](CCCCCC)(CCCCCC)CCCCCC.[Br-] [tetradecyltrihexylphosphonium bromide] | 977.6 ± 0.8 kg/m3
CCCCCCCCCCCCCC[P+](CCCCCC)(CCCCCC)CCCCCC.N#C[N-]C#N [tetradecyl(trihexyl)phosphonium dicyanamide] | 920.3 ± 1.4 kg/m3
CCCCCCCCCCCCCC[P+](CCCCCC)(CCCCCC)CCCCCC.CS(=O)(=O)[O-] [trihexyltetradecylphosphonium methanesulfonate] | 952.7 ± 1 kg/m3

----------
details: 333.15 K; 4000 kPa; Liquid
Listing of entries alongside the reported mass density.
reported metric: mass density (kg/m3)

CCCCCCCCCCCCCC[P+](CCCCCC)(CCCCCC)CCCCCC.[Br-] [tetradecyltrihexylphosphonium bromide] | 934.2
CCCCCCCCCCCCCC[P+](CCCCCC)(CCCCCC)CCCCCC.O=S(=O)([N-]S(=O)(=O)C(F)(F)F)C(F)(F)F | 1043.6
CCCCCCCCCCCCCC[P+](CCCCCC)(CCCCCC)CCCCCC.CS(=O)(=O)[O-] [trihexyltetradecylphosphonium methanesulfonate] | 910
CCCCCCCCCCCCCC[P+](CCCCCC)(CCCCCC)CCCCCC.[Cl-] [trihexyl(tetradecyl)phosphonium chloride] | 871.1
CCCCCCCCCCCCCC[P+](CCCCCC)(CCCCCC)CCCCCC.N#C[N-]C#N [tetradecyl(trihexyl)phosphonium dicyanamide] | 880.8

----------
conditions: 293.15 K; 5000 kPa; Liquid
reported metric: mass density (kg/m3)

CCCCCCCCCCCCCC[P+](CCCCCC)(CCCCCC)CCCCCC.[Br-] [tetradecyltrihexylphosphonium bromide] | 959.2
CCCCCCCCCCCCCC[P+](CCCCCC)(CCCCCC)CCCCCC.O=S(=O)([N-]S(=O)(=O)C(F)(F)F)C(F)(F)F | 1072.9
CCCCCCCCCCCCCC[P+](CCCCCC)(CCCCCC)CCCCCC.[Cl-] [trihexyl(tetradecyl)phosphonium chloride] | 894.9
CCCCCCCCCCCCCC[P+](CCCCCC)(CCCCCC)CCCCCC.CS(=O)(=O)[O-] [trihexyltetradecylphosphonium methanesulfonate] | 934.4
CCCCCCCCCCCCCC[P+](CCCCCC)(CCCCCC)CCCCCC.N#C[N-]C#N [tetradecyl(trihexyl)phosphonium dicyanamide] | 904
